These data points were gathered from ChEMBL document CHEMBL1151049.

- Tested On: Small conductance calcium-activated potassium channel protein 2 (Rattus norvegicus, UniProt P70604)
- Sequence (P70604 whole entry): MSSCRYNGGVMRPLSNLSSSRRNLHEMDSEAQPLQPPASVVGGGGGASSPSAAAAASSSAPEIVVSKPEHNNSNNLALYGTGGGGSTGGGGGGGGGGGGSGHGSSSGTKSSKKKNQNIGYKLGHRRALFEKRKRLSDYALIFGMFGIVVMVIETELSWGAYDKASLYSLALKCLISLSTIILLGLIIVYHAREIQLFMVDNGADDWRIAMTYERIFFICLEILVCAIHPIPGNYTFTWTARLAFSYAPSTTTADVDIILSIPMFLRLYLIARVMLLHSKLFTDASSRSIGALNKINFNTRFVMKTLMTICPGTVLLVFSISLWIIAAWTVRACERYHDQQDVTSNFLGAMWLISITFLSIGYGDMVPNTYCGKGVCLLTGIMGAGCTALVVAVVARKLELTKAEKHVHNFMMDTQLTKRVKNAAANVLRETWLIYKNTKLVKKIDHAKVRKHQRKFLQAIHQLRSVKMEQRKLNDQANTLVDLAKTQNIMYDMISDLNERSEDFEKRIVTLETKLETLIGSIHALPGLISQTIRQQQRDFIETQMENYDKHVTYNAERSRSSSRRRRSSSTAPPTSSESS
- Experimental Details: Inhibitory concentration of compound required for SKCa blocking action was assessed from its ability to inhibit After hyperpolarisation (AHP) in cultured rat sympathetic neurons
pIC50: −log10 of the molar value.
Quantity Name: pIC50

// solved cases for pIC50 follow
| Smiles Input | Quantity Name | Quantitative Result |
| --- | --- | --- |
| c1cc2cc(c1)-c1cccc(c1)C[n+]1ccc(c3ccccc31)NCCCCCCCCCCNc1cc[n+](c3ccccc13)C2 | pIC50 | 6.96 |
| c1ccc2c(c1)c1cc[n+]2Cc2ccc3c(c2)Cc2cc(ccc2-3)C[n+]2ccc(c3ccccc32)NCCCCCCCCCCN1 | pIC50 | 7.05 |

[1] Nc1cc[n+](Cc2ccc(Cc3ccc(C[n+]4ccc(N)c5ccccc54)cc3)cc2)c2ccccc12
[2] c1ccc2c(c1)c1cc[n+]2Cc2ccc(cc2)Cc2ccc(cc2)C[n+]2ccc(c3ccccc32)NCCCCCCCCCCN1
Task item: In terms of reported pIC50, does 1 or 2 have the smaller number? In your reply, give the label of the chosen option.
Reply: 1

###

- Tested On: Small conductance calcium-activated potassium channel protein 2 (Rattus norvegicus, UniProt P70604)
- Experimental Details: Inhibitory concentration of compound required for SKCa blocking action was assessed from its ability to inhibit After hyperpolarisation (AHP) in cultured rat sympathetic neurons
pIC50: −log10 of the molar value.
Quantity Name: pIC50

A selection of reference data follows.
| Smiles Input | Quantitative Result |
| --- | --- |
| Nc1cc[n+](Cc2ccc(-c3ccc(C[n+]4ccc(N)c5ccccc54)cc3)cc2)c2ccccc12 | 6.42 |
| Nc1cc[n+](Cc2cccc(-c3cccc(C[n+]4ccc(N)c5ccccc54)c3)c2)c2ccccc12 | 6.54 |
| c1ccc2c(c1)c1cc[n+]2Cc2ccc(cc2)-c2ccc(cc2)C[n+]2ccc(c3ccccc32)NCCCCCCCCCCN1 | 6.77 |
| c1ccc(C[n+]2ccc(NCCCCCCCCCCNc3cc[n+](Cc4ccccc4)c4ccccc34)c3ccccc32)cc1 | 6.15 |
| Nc1cc[n+](Cc2ccc(CCc3ccc(C[n+]4ccc(N)c5ccccc54)cc3)cc2)c2ccccc12 | 6.39 |

[P] c1ccc2c(c1)c1cc[n+]2Cc2ccc(cc2)CCc2ccc(cc2)C[n+]2ccc(c3ccccc32)NCCCCCCCCCCN1
[Q] Nc1cc[n+](Cc2ccc3c(c2)Cc2cc(C[n+]4ccc(N)c5ccccc54)ccc2-3)c2ccccc12
Task item: Which of these two has the smaller recorded pIC50: P or Q ? Return value: the label identifying the chosen record.
Reply: Q
